tested-system: Serine/threonine-protein kinase PLK1 (Homo sapiens)
measurement-description: qHTS for Inhibitors of PLK1-PDB (polo-like kinase 1 - polo-box domain): Primary Screen; also: series mostly up to about 57 µM; % is scaled to controls: 0 for no effect and ±100 for the full control effect; nearly all actives have a fitted effect of over 65% in size
measurement-context: Plk1 PBD binding of FITC phosphopeptide, fluorescence polarization
The campaign covered roughly 360,000 compounds. About 10,000 (2.8%) were called active. Another 4% or so got no clear call; they are omitted. The full list was thinned out, with actives kept by preference.
experimental-readout: max response, negative = inhibition (%)
Give bare numbers, in %.

Observe how each entry below is paired with its result.
{"compound": "COC(=O)C[C@H]1CC[C@H]2NC[C@@H](O)COC[C@@H]2O1", "max response, negative = inhibition (%)": -11.8}
{"compound": "C[N+]1(C)CCOC(O)(c2ccc(-c3ccc(C4(O)C[N+](C)(C)CCO4)cc3)cc2)C1 (stereo not given)", "max response, negative = inhibition (%)": -17.9}
{"compound": "CCOC(=O)C1=C(C)OC(N)=C(C(=O)OC)C12C(=O)Nc1ccc(Br)cc12 (stereo not given)", "max response, negative = inhibition (%)": 0.0447}

Record max response, negative = inhibition per entry; entries follow.
1. CN1CCC(OC(=O)c2cccc(F)c2)CC1
2. O=c1c2ccccc2nc(-c2ccc(Cl)cc2Cl)n1-c1ccncc1
3. COc1cc(C(=O)N2Cc3ccc(Br)cc3-n3nncc3C2)cc(OC)c1OC
4. C=CCN(CC=C)C(=O)Nc1ccc(OCC)cc1
5. CN(C)C(=O)Oc1cc(=O)n2c3c(cccc13)CCC2
6. COCc1cc(OC(=O)N(C)C)nc(-c2ccc(C)c(Cl)c2)n1
7. CN(C)C(=O)Oc1ccc(NC(=O)N2CCOCC2)cc1

-15.3
-3.78
-10
-8.48
-13.7
-4.36
-3.11
